Tested on: E13 (patient-derived glioblastoma stem cells of classical subtype)
assay.text: surviving fraction (nuclei count normalised to DMSO); higher = more cells surviving (less toxic)
measurement.parameters: 111.1 nM; exposure time: 72 h
Where a name gives a salt, the structure may show the parent alone.
readout.kind: surviving fraction
# respond with the number and nothing more

Hello, I am looking for reported surviving fraction with E13 for CCCCC(CC)CNC(=N)NC(=N)NCCCCCCNC(=N)NC(=N)NCC(CC)CCCC (stereo not drawn) [Alexidine dihydrochloride] . Could you help?
0.877

Please do the same for Clc1ccc(C(Cn2ccnc2)OCc2ccsc2Cl)c(Cl)c1 (stereo not drawn) as well.
0.98

Please do the same for Cc1cc(C(C)(C)CC(C)(C)C)ccc1OCCOCC[N+](C)(C)Cc1ccccc1 [Methyl benzethonium chloride] as well.
1

----------
Tested on: E34 (patient-derived glioblastoma stem cells of proneural subtype)
assay.text: surviving fraction (nuclei count normalised to DMSO); higher = more cells surviving (less toxic)
measurement.parameters: 4.1 nM; exposure time: 72 h
Counter-ions that a name gives are not always drawn.
readout.kind: surviving fraction
# respond with the number and nothing more

Guide cases for surviving fraction, answers given:
CC(C)C[C@H](NC(=O)CNC(=O)c1cc(Cl)ccc1Cl)B1OC(=O)C(CC(=O)O)(CC(=O)O)O1 [MLN9708] | 0.307
CCC[C@@H]1C[C@@H](C(=O)N[C@@H]([C@H]2O[C@H](SC)[C@H](O)[C@@H](O)[C@H]2O)[C@@H](C)O)N(C)C1 [Lincomycin hydrochloride] | 0.988
CC(C)C[C@H](NC(=O)[C@H](CCc1ccccc1)NC(=O)CN1CCOCC1)C(=O)N[C@@H](Cc1ccccc1)C(=O)N[C@@H](CC(C)C)C(=O)[C@@]1(C)CO1 [Carfilzomib] | 0.262

Next compound, surviving fraction to be filled in.
Item under review: CC(C)C[C@@H](C(=O)N[C@H](C(=O)OC1CCCC1)c1ccccc1)[C@H](O)C(=O)NO [Tosedostat] . Reported surviving fraction?
0.968

----------
Tested on: E31 (patient-derived glioblastoma stem cells of proneural subtype);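 further: cell Painting imaging in 384-well plates, CellProfiler features reduced to at least 20 principal components, Euclidean distance versus same-plate DMSO vehicle wells (0.1% v/v), median over six images per well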
assay.text: phenotypic distance (Euclidean, principal components) from DMSO controls (arbitrary units); higher = stronger morphological change
measurement.parameters: 1000 nM; exposure time: 72 h
Structures can show the parent of a compound that is named as a salt.
readout.kind: phenotypic distance
# respond with the number and nothing more

Guide cases for phenotypic distance, answers given:
CC(C)NCC(O)c1cc(O)cc(O)c1 (stereo not given) [Metaproterenol sulfate, orciprenaline sulfate] | 0.447
CSc1ccc2c(c1)N(CCC1CCCCN1C)c1ccccc1S2 (stereo not given) [Thioridazine hydrochloride] | 0.532
OCCN1C[C@H](O)[C@@H](O)[C@H](O)[C@H]1CO [Miglitol] | 0.778
Clc1ccc(C(Cn2ccnc2)OCc2ccsc2Cl)c(Cl)c1 (stereo not given) [Tioconazole] | 0.918

Next compound, phenotypic distance to be filled in.
Hello, I am looking for reported phenotypic distance with E31 for CC(NCCC(c1ccccc1)c1ccccc1)c1ccccc1 (stereo not given) [Fendiline hydrochloride] . Could you help?
0.581

----------
Test system: E57 (patient-derived glioblastoma stem cells of mesenchymal subtype)
assay.text: surviving fraction (nuclei count normalised to DMSO); higher = more cells surviving (less toxic)
measurement.parameters: 3000 nM; exposure time: 72 h
readout.kind: surviving fraction
# respond with the number and nothing more

Guide cases for surviving fraction, answers given:
CC(C)CC(=O)N[C@H](C(=O)N[C@H](C(=O)N[C@@H](CC(C)C)[C@@H](O)CC(=O)N[C@@H](C)C(=O)N[C@@H](CC(C)C)[C@@H](O)CC(=O)O)C(C)C)C(C)C [Pepstatin A] | 0.901
CC(C)(C)C1CCN(C(=O)n2ncc(C(O)(c3ccccc3)c3ccccc3)n2)CC1 [ML211] | 0.894
COc1ccc([C@@H]2CC(=O)c3c(O)cc(O[C@@H]4O[C@H](CO[C@@H]5O[C@@H](C)[C@H](O)[C@@H](O)[C@H]5O)[C@@H](O)[C@H](O)[C@H]4O)cc3O2)cc1O [Hesperidin] | 0.915

Next molecule, surviving fraction to be filled in.
Item under review: COc1cc(N)c(Cl)cc1C(=O)NC1CCN(CCCOc2ccc(F)cc2)CC1OC (centres undefined) [Cisapride] . Reported surviving fraction?
0.918

FYI, the data here is from the supplement of paper PMC13207355.
